Hey, just so you know, these numbers are from patent US10457707B2.

# System: Streptococcus pneumoniae, R6
# Measurement Notes: Minimal inhibitory concentration assay
# Format: cell-based
# Measurement Parameters: read-out: Minimal Inhibitory Concentrations S. pneumoniae R6
*1 amine or outer side, *2 acyl side, *3 side chain or, on linkers, in order; H or OH if unused. Where a SMILES comes first, the peptide text is derived from it. Bridges are numbered along the chain shown (N, C = ends). [ ]: non-standard residue; d: D form. The star is where a group is joined. ξ: configuration not given here. NH(1,3-benzodioxol-5-yl) = c1cc2c(cc1N*)OCO2; Phe(3,5-F2) = N[C@@H](Cc1cc(F)cc(F)c1)C(=O)O; NMepT = CN[C@H](C(=O)O)[C@@H](C)OP(=O)(O)O; NH(4-OCF3-phenyl) = FC(F)(F)Oc1ccc(N*)cc1; Pro(4S-Me) = C[C@@H]1CN[C@H](C(=O)O)C1; Pro(4R-Me) = C[C@H]1CN[C@H](C(=O)O)C1; ξPro(4R-OH) = O=C(O)C1C[C@@H](O)CN1; ξPro(4S-Me) = C[C@@H]1CNC(C(=O)O)C1; NMeaThr = CN[C@H](C(=O)O)[C@H](C)O; ξPro(4R-Me) = C[C@H]1CNC(C(=O)O)C1; NMeT = CN[C@H](C(=O)O)[C@@H](C)O; NH(4-Me-phenyl) = Cc1ccc(N*)cc1; aThr = C[C@H](O)[C@H](N)C(=O)O; X5 = O=C(C1COCCN1[*:1])[*:2]; Pip = O=C(O)[C@@H]1CCCCN1; NMeA = CN[C@@H](C)C(=O)O; CO = O=C([*:1])[*:2]; ξP = O=C(O)C1CCCN1
Lab note - cut at 0.08 µM for MIC: criterion met if strictly below, criterion not met if not.

Cc1ccc(NC(=O)N[C@@H](Cc2cc(F)cc(F)c2)C(=O)N[C@@H]2C(=O)N3CCCC3C(=O)N(C)[C@@H](C)C(=O)N[C@@H](C)C(=O)N3CCCC3C(=O)O[C@H]2C)cc1 (stereo partly drawn) [Compound 25] ({NH(4-Me-phenyl)-CO}-[Phe(3,5-F2)][aThr][ξP][NMeA]A[ξP]; ester 2-C); criterion not met
Cc1ccc(NC(=O)N[C@@H](Cc2cc(F)cc(F)c2)C(=O)N[C@@H]2C(=O)N3CCC[C@H]3C(=O)N3CCCC[C@H]3C(=O)N[C@@H](C)C(=O)N3C[C@H](C)C[C@H]3C(=O)O[C@H]2C)cc1 [Compound 209] ({NH(4-Me-phenyl)-CO}-[Phe(3,5-F2)][aThr]P[Pip]A[Pro(4R-Me)]; ester 2-C); criterion met
C[C@H]1CC2C(=O)O[C@@H](C)[C@H](NC(=O)[C@H](Cc3cc(F)cc(F)c3)NC(=O)Nc3ccc(OC(F)(F)F)cc3)C(=O)N3CCCC3C(=O)N(C)[C@@H](C)C(=O)N[C@@H](C)C(=O)N2C1 (stereo partly drawn) [Compound 28] ({NH(4-OCF3-phenyl)-CO}-[Phe(3,5-F2)][aThr][ξP][NMeA]A[ξPro(4S-Me)]; ester 2-C); criterion met
C[C@H]1CC2C(=O)O[C@@H](C)[C@H](NC(=O)[C@H](Cc3cc(F)cc(F)c3)NC(=O)Nc3ccc(OC(F)(F)F)cc3)C(=O)N3CCCC3C(=O)N3CCOCC3C(=O)N[C@@H](C)C(=O)N2C1 (stereo partly drawn) [Compound 34] ({NH(4-OCF3-phenyl)-CO}-[Phe(3,5-F2)][aThr][ξP][X5]A[ξPro(4S-Me)]; ester 2-C); criterion met
Cc1ccc(NC(=O)N[C@@H](Cc2cc(F)cc(F)c2)C(=O)N[C@@H]2C(=O)N3C[C@H](O)CC3C(=O)N(C)[C@@H](C)C(=O)N[C@@H](C)C(=O)N3C[C@H](C)CC3C(=O)O[C@H]2C)cc1 (stereo partly drawn) [Compound 31] ({NH(4-Me-phenyl)-CO}-[Phe(3,5-F2)][aThr][ξPro(4R-OH)][NMeA]A[ξPro(4R-Me)]; ester 2-C); criterion not met
Cc1ccc(NC(=O)N[C@@H](Cc2cc(F)cc(F)c2)C(=O)N[C@@H]2C(=O)N3CCC[C@H]3C(=O)N(C)[C@@H]([C@@H](C)OP(=O)(O)O)C(=O)N[C@@H](C)C(=O)N3C[C@@H](C)C[C@H]3C(=O)O[C@H]2C)cc1 [Compound 188] ({NH(4-Me-phenyl)-CO}-[Phe(3,5-F2)][aThr]P[NMepT]A[Pro(4S-Me)]; ester 2-C); criterion not met
Cc1ccc(NC(=O)N[C@@H](Cc2cc(F)cc(F)c2)C(=O)N[C@@H]2C(=O)N3CCC[C@H]3C(=O)N(C)[C@@H]([C@@H](C)O)C(=O)N[C@@H](C)C(=O)N3C[C@H](C)C[C@H]3C(=O)O[C@H]2C)cc1 [Compound 38] ({NH(4-Me-phenyl)-CO}-[Phe(3,5-F2)][aThr]P[NMeT]A[Pro(4R-Me)]; ester 2-C); criterion met
C[C@@H]1C[C@H]2C(=O)O[C@@H](C)[C@H](NC(=O)[C@H](Cc3cc(F)cc(F)c3)NC(=O)Nc3ccc4c(c3)OCO4)C(=O)N3CCC[C@H]3C(=O)N3CCCC[C@H]3C(=O)N[C@@H](C)C(=O)N2C1 [Compound 198] ({NH(1,3-benzodioxol-5-yl)-CO}-[Phe(3,5-F2)][aThr]P[Pip]A[Pro(4R-Me)]; ester 2-C); criterion met
Cc1ccc(NC(=O)N[C@@H](Cc2cc(F)cc(F)c2)C(=O)N[C@@H]2C(=O)N3CCC[C@H]3C(=O)N(C)[C@@H]([C@H](C)O)C(=O)N[C@@H](C)C(=O)N3C[C@@H](C)C[C@H]3C(=O)O[C@H]2C)cc1 [Compound 202] ({NH(4-Me-phenyl)-CO}-[Phe(3,5-F2)][aThr]P[NMeaThr]A[Pro(4S-Me)]; ester 2-C); criterion met

---

# Measurement Notes: Cytotoxicity assay (CellTiter-Glo cell viability, 72 hours)
# Assay type: cell-based
# Measurement Parameters: African green monkey; Vero cells, 72 hours, growth inhibition; read-out: Cytotoxicity IC50
*1 amine or outer side, *2 acyl side, *3 side chain or, on linkers, in order; H or OH if unused. Where a SMILES comes first, the peptide text is derived from it. Bridges are numbered along the chain shown (N, C = ends). [ ]: non-standard residue; d: D form. The star is where a group is joined. ξ: configuration not given here. Phe(3,5-F2) = N[C@@H](Cc1cc(F)cc(F)c1)C(=O)O; NH(1-Me-indolin-5-yl) = CN1CCc2cc(N*)ccc21; NMepT = CN[C@H](C(=O)O)[C@@H](C)OP(=O)(O)O; Morpholine(3S-CO) = O=C(O)[C@@H]1COCCN1; Pro(4S-Me) = C[C@@H]1CN[C@H](C(=O)O)C1; Pro(4R-Me) = C[C@H]1CN[C@H](C(=O)O)C1; Hyp = O=C(O)[C@@H]1C[C@@H](O)CN1; NH(4-Me-phenyl) = Cc1ccc(N*)cc1; ξNMeThr = CNC(C(=O)O)[C@@H](C)O; aThr = C[C@H](O)[C@H](N)C(=O)O; Pip = O=C(O)[C@@H]1CCCCN1; NMeA = CN[C@@H](C)C(=O)O; CO = O=C([*:1])[*:2]
Measurement Label: IC50 at 72 h

C[C@@H]1C[C@H]2C(=O)O[C@@H](C)[C@H](NC(=O)[C@H](Cc3cc(F)cc(F)c3)NC(=O)Nc3ccc4c(c3)CCN4C)C(=O)N3C[C@H](O)C[C@H]3C(=O)N3CCOC[C@H]3C(=O)N[C@@H](C)C(=O)N2C1 [Compound 315] ({NH(1-Me-indolin-5-yl)-CO}-[Phe(3,5-F2)][aThr][Hyp][Morpholine(3S-CO)]A[Pro(4R-Me)]; ester 2-C); > 100 µM
C[C@@H]1C[C@H]2C(=O)O[C@@H](C)[C@H](NC(=O)[C@H](Cc3cc(F)cc(F)c3)NC(=O)Nc3ccc4c(c3)CCN4C)C(=O)N3CCC[C@H]3C(=O)N(C)C([C@@H](C)O)C(=O)N[C@@H](C)C(=O)N2C1 (stereo partly drawn) [Compound 311] ({NH(1-Me-indolin-5-yl)-CO}-[Phe(3,5-F2)][aThr]P[ξNMeThr]A[Pro(4R-Me)]; ester 2-C); 14.3 µM
Cc1ccc(NC(=O)N[C@@H](Cc2cc(F)cc(F)c2)C(=O)N[C@@H]2C(=O)N3CCC[C@H]3C(=O)N(C)[C@@H]([C@@H](C)OP(=O)(O)O)C(=O)N[C@@H](C)C(=O)N3C[C@@H](C)C[C@H]3C(=O)O[C@H]2C)cc1 [Compound 188] ({NH(4-Me-phenyl)-CO}-[Phe(3,5-F2)][aThr]P[NMepT]A[Pro(4S-Me)]; ester 2-C); > 100 µM
Cc1ccc(NC(=O)N[C@@H](Cc2cc(F)cc(F)c2)C(=O)N[C@@H]2C(=O)N3C[C@H](O)C[C@H]3C(=O)N(C)[C@@H](C)C(=O)N[C@@H](C)C(=O)N3C[C@@H](C)C[C@H]3C(=O)O[C@H]2C)cc1 [Compound 214] ({NH(4-Me-phenyl)-CO}-[Phe(3,5-F2)][aThr][Hyp][NMeA]A[Pro(4S-Me)]; ester 2-C); > 100 µM
Cc1ccc(NC(=O)N[C@@H](Cc2cc(F)cc(F)c2)C(=O)N[C@@H]2C(=O)N3CCC[C@H]3C(=O)N3CCCC[C@H]3C(=O)N[C@@H](C)C(=O)N3C[C@H](C)C[C@H]3C(=O)O[C@H]2C)cc1 [Compound 209] ({NH(4-Me-phenyl)-CO}-[Phe(3,5-F2)][aThr]P[Pip]A[Pro(4R-Me)]; ester 2-C); 40 µM
C[C@@H]1C[C@H]2C(=O)O[C@@H](C)[C@H](NC(=O)[C@H](Cc3cc(F)cc(F)c3)NC(=O)Nc3ccc4c(c3)CCN4C)C(=O)N3CCC[C@H]3C(=O)N3CCOC[C@H]3C(=O)N[C@@H](C)C(=O)N2C1 [Compound 312] ({NH(1-Me-indolin-5-yl)-CO}-[Phe(3,5-F2)][aThr]P[Morpholine(3S-CO)]A[Pro(4R-Me)]; ester 2-C); 2.87 µM
